Reported melting point values for a set of molecules

Example molecules with recorded melting point:
Cc1c(CNCC(C)C)n(C)c2ccc(NC(=O)c3ccc(OC[C@@H]4CCCO4)cc3)cc12: 145 to 146 °C
Cc1c(CNCC(C)(C)O)n(C)c2c(C)c(NC(=O)c3ccc(OC[C@@H]4CCCO4)cc3)ccc12: 186 to 188 °C
Cn1c(CNCC(C)(C)C)cc2cc(NC(=O)c3ccc(OCC4CCOC4)cc3)ccc21 (centres unmarked): 162 to 163 °C
Cc1c(CNCC2CCOCC2)n(C)c2ccc(NC(=O)c3ccc(OC[C@@H]4CCCO4)cc3)cc12: 185 to 186 °C
Cc1c(NC(=O)c2ccc(OC[C@@H]3CCCO3)cc2)ccc2[nH]c(CNC3CCCC3)cc12: 191 to 192 °C
Cc1c(NC(=O)c2ccc(OCC3CC3)cc2)ccc2cc(CN3CCC(C)(O)CC3)[nH]c12: 195 °C
Cc1c(NC(=O)c2ccc(OC[C@@H]3CCCO3)cc2)ccc2cc(CN[C@H]3CC[C@](C)(O)CC3)n(C)c12: 171 to 172 °C

The record that follows has no melting point shown yet.
Task item: Give its melting point value. Item: Cc1c(NC(=O)c2ccc(OC[C@@H]3CCCO3)cc2)ccc2cc(CNCC(C)(C)C)n(C)c12
Reply: 201 °C

* * *

Reported melting point values for a set of compounds

Cn1c(CNCC(C)(C)C)cc2cc(NC(=O)c3ccc(C#CC4(O)CCC4)cc3)ccc21 [Example 30]: 160 to 161 °C
Cc1c(CNCC(C)(C)O)n(C)c2c(C)c(NC(=O)c3ccc(OC[C@@H]4CCCO4)cc3F)ccc12 [Example 111]: 131 to 132 °C
Cc1c(NC(=O)c2ccc(OC[C@@H]3CCCO3)cc2)ccc2c1cc(CN1CCC(C)(O)CC1)n2C [Example 58]: 210 °C

Task item: Give its melting point value. Item: Cc1c(NC(=O)c2ccc(C#CC3(O)CC3)cc2)ccc2cc(CNCC(C)(C)C)n(C)c12 [Example 91]
Reply: 182 to 183 °C

Task item: Give its melting point value. Item: CC(C)CNCc1cc2cc(NC(=O)c3ccc(OC[C@@H]4CCCO4)cc3)ccc2n1C [Example 16]
Reply: 132 to 133 °C

Task item: Give its melting point value. Item: Cc1c(CNC2CCCC2)[nH]c2c(C)c(NC(=O)c3ccc(OC[C@@H]4CCCO4)cc3)ccc12 [Example 100]
Reply: 107 to 109 °C

Task item: Give its melting point value. Item: Cc1c(NC(=O)c2ccc(OCC3CC3)cc2)ccc2[nH]c(CNCC3CCOCC3)cc12 [Example 43]
Reply: 181 to 182 °C

Task item: Give its melting point value. Item: Cn1c(CNC2CCS(=O)(=O)CC2)cc2cc(NC(=O)c3ccc(OCC4CC4)cc3)ccc21 [Example 6]
Reply: 200 to 201 °C

* * *

readout: melting point

Example compounds with recorded melting point:
Cc1c(CNCC(C)(C)O)[nH]c2c(C)c(NC(=O)c3ccc(OC[C@@H]4CCCO4)cc3F)ccc12: 151 to 152 °C
Cc1c(CNCC(C)(C)C)[nH]c2c(F)c(NC(=O)c3ccc(OC[C@@H]4CCCO4)cc3)ccc12: 159 to 160 °C

Task item: Give its melting point value. Item: Cn1c(CNCC(C)(C)O)cc2cc(NC(=O)c3ccc(OCC4CC4)cc3)ccc21
Reply: 188 to 189 °C

Task item: Give its melting point value. Item: Cn1c(CNCC(C)(C)O)cc2cc(NC(=O)c3ccc(OC[C@@H]4CCCO4)cc3)ccc21
Reply: 188 to 190 °C
